- Study Target: the molecule itself
- Run Description: FRET or BRET; homo-FRET (steady-state fluorescence anisotropy of EGFP, time-domain, TCSPC) at the plasma membrane of living transfected Jurkat cells on PLL-coated slides, 37 °C; semi-quantitative, calibrated by monomeric LAT and dimeric CD8α
Observation Type: steady-state anisotropy, median

| Protein | Numeric Readout |
| --- | --- |
| EGFP-Nkrp1f_C74S (receptor, mouse (C57BL/6), UniProt Q8VD98 1-217, looked up, Two extra C-terminal residues (Thr-Gly) possible as for m8 (surmise from the primer); also called C74S mutant of Nkrp1f; source: Jurkat, transiently transfected, living cells; COS-7, transiently transfected, in lysate; not shown: EGFP (with spacer GSGGGS), N-terminal, kept) MDTSKVHGNVKPFRCPGYKQASSPSFSPDACRCPHWHHLALKSGCAGLILLLLSLIGLSVLVRFLVQKPPIEKSSVAAQENRTELTGRSAILECPRYWHPHWNKCLFVSQISRPWAEGRDACSMEDAILLLIENKEELRFVQNLIKGKEQLFFIGLKYVQKEKIWKWIDGSILNPNLLRITGKDKENSCAIISHTEVFSDSCSSDNHWICQKTLIHV | 0.281 |
| EGFP-Nkrp1c1 (receptor, mouse (C57BL/6), UniProt P27814 1-223, looked up, last residue S223; Vector pXJ41; also called c1 isoform; source: Jurkat, transiently transfected, living cells; COS-7, transiently transfected, in lysate; not shown: EGFP (with spacer GSGGGS), N-terminal, kept) MDTASIYLGLKPPRTLGAWHESPPSLPPDACRCPRSHRLALKLSCAGLILLVLTLIGMSVLVRVLVQKPSREKCCVFIQENLNKTTDCSVNLECPQDWLLHRDKCFHVSQVSNTWEEGQADCGRKGATLLLIQDQEELRFLLDSIKEKYNSFWIGLRFTLPDMNWKWINGTTFNSDVLKITGVTENGSCASILGDKVTPESCASDNRWICQKELNHETPSNDS | 0.242 |
| EGFP-Nkrp1f (receptor, mouse (C57BL/6), UniProt Q8VD98 1-217, looked up, last residue V217; Vector pXJ41; also called f isoform; source: Jurkat, transiently transfected, living cells; COS-7, transiently transfected, in lysate; not shown: EGFP (with spacer GSGGGS), N-terminal, kept) MDTSKVHGNVKPFRCPGYKQASSPSFSPDACRCPHWHHLALKSGCAGLILLLLSLIGLSVLVRFLVQKPPIEKCSVAAQENRTELTGRSAILECPRYWHPHWNKCLFVSQISRPWAEGRDACSMEDAILLLIENKEELRFVQNLIKGKEQLFFIGLKYVQKEKIWKWIDGSILNPNLLRITGKDKENSCAIISHTEVFSDSCSSDNHWICQKTLIHV | 0.25 |
